Just for reference, ChEMBL document CHEMBL3988442 is where these values come from.

Percent Effect values, listed per item
- TARGET UNDER TEST: Proteasome subunit beta (Trypanosoma cruzi)
- Sequence (whole entry): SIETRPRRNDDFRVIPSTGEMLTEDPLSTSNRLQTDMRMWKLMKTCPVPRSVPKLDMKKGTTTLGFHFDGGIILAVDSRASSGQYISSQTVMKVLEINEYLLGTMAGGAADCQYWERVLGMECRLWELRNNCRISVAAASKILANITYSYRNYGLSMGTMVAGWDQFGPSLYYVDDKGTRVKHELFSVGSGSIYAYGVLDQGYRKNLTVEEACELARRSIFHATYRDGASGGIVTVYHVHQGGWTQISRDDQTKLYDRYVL
- PROTOCOL NOTES: Trypanosoma cruzi proteasome chymotrypsin-like activity (TcProtChymo) assay.
- Format: functional
- Set-up: scale not given: in the data most compounds retested in dose-response had high values
- CONDITIONS USED: 9.37 µM
Just the number in %, nothing appended.

Recorded Percent Effect, per entry:
> print(dat)
                                   compound  reported.metric  u  measured
1  O=C(NCCc1cccc(O)c1)NC1CCN(c2ccccc2)C1=O (configuration not stated)   Percent Effect  %      11.7
2    CCn1c(Cn2cncn2)nnc1C1CCN(Cc2ccncc2)CC1   Percent Effect  %      4.72
3  O=C(NCCCn1cccn1)N1CCCC1c1ccncc1 (configuration not stated)   Percent Effect  %      15.3
4  CC(C)N(C)CC(=O)NC1CCc2nccn2C1 (configuration not stated)   Percent Effect  %      3.14

What does the record list as Percent Effect for Cc1noc([C@@H]2C[C@H]3OCC[C@H]3N(S(C)(=O)=O)C2)n1 ?
9.5

Percent Effect lookup needed for CN(Cc1ccc2c(c1)OCCO2)C(=O)NCCc1cnn(C)c1 , thanks.
14.5

I would be grateful if you could share the reported Percent Effect for Cc1csc(CNC(=O)NC2CCN(c3ncccn3)CC2)n1 .
12.6

Return reported Percent Effect; argument: CCc1nnc2n1CC(CNCc1ccncc1)CC2 (configuration not stated)
19.6

Requested field: Percent Effect. Item: CC(C)C(Sc1nnc(C2CC2)n1C1CC1)C(=O)NCc1cccnc1 (configuration not stated)
3.21

Value lookup for Percent Effect; key = Fc1cccc(-c2nc(CN3CCOC(Cn4cccn4)C3)co2)c1 (configuration not stated)
4.68

Could you tell me which Percent Effect is on file for COC1CCN(C(=O)c2c(Cl)c3ccccc3n2C)CC1 ?
16.2

Endpoint output: Percent Effect of c1coc(CN2CCCC3(COCCN(Cc4c[nH]nn4)C3)C2)c1 (configuration not stated) . Value?
10.9

# get_value(readout='Percent Effect', item= COc1c(C)cnc(CSc2nnc(C)s2)c1C )
4.53

Which measured Percent Effect value corresponds to N#Cc1ncn(CCC(=O)Nc2c(Cl)cccc2Cl)n1 ?
19.6

Field request: Percent Effect | item: CC(CN1CCOCC1)NC(=O)N(C)Cc1ccc(Cl)s1 (configuration not stated)
13.3

I have this compound here, O=C(CCCOc1ccc(F)cc1F)N1CCCC1Cn1cccn1 (configuration not stated) , and I need its recorded Percent Effect.
8.38

Look at this compound and give its reported Percent Effect. O=C(CNCCn1cccn1)NCC1(c2ccccc2)CC1
-3.96
